# system.tested: D(1A) dopamine receptor (Homo sapiens)
# procedure.text: Antagonist of Human D 1 Dopamine Receptor: qHTS; also: % is scaled to controls: 0 for no effect and ±100 for the full control effect
# particulars: HEK293 TREx D1 cells, calcium flux, dopamine EC80; at 10 µM; stronger effect = lower value
The whole screen tested about 360,000 compounds, of which about 11,000 (3.1%) were called active. The entries come from a sample that favours actives as a whole.
The reader will find reported activity change, negative = inhibition values listed item by item below.

| compound | system.tested | activity change, negative = inhibition, % |
| --- | --- | --- |
| CCSc1nsc(NC(=O)Nc2cccc(C(C)=O)c2)n1 | D(1A) dopamine receptor (Homo sapiens) | -35 |
| O=S(=O)(NC1CCCCC1)c1ccc(F)c2ccccc12 | D(1A) dopamine receptor (Homo sapiens) | -32.8 |
| CSc1ccccc1C(=O)Nc1cccc(C(C)=O)c1 | D(1A) dopamine receptor (Homo sapiens) | -13.7 |
| CCOc1ccc(OCC)c(NS(=O)(=O)c2ccc3[nH]c(=O)ccc3c2)c1 | D(1A) dopamine receptor (Homo sapiens) | -7.27 |
| COc1ccccc1CCNC(=O)c1cccn1-c1nnc(N2CCCCC2)s1 | D(1A) dopamine receptor (Homo sapiens) | 13.6 |
| O=c1[nH]c2cc(Br)ccc2n2cccc12 | D(1A) dopamine receptor (Homo sapiens) | 17.9 |
| COCc1ccc(CN2CCC(Oc3ccc(C(=O)NCc4ccccn4)cc3)CC2)o1 | D(1A) dopamine receptor (Homo sapiens) | -5.9 |
| Cn1cc(CNC(=O)c2ccc(OC3CCN(Cc4ccccn4)CC3)cc2)cn1 | D(1A) dopamine receptor (Homo sapiens) | -41.2 |
| CC1CN(C(=O)N2CCC(C(=O)NCc3cccs3)CC2)c2ccccc2O1 (configuration not stated) | D(1A) dopamine receptor (Homo sapiens) | -3.92 |
| CN(C)[C@@H]1C(=O)C(C(N)=O)=C(O)[C@@]2(O)C(=O)C3=C(O)c4c(O)ccc(Cl)c4[C@@H](O)[C@H]3C[C@@H]12 | D(1A) dopamine receptor (Homo sapiens) | -42.8 |
| CCn1c(C(=O)Nc2cc(Cl)ccc2C)cc2sc(Cl)cc21 | D(1A) dopamine receptor (Homo sapiens) | -0.309 |
| Cn1c(C(=O)Nc2cccc(C(F)(F)F)c2)cc2c(=O)n3ccccc3nc21 | D(1A) dopamine receptor (Homo sapiens) | -9.44 |
| C=CCSc1nsc(NC(=O)Nc2cccc(C(C)=O)c2)n1 | D(1A) dopamine receptor (Homo sapiens) | -31.6 |
| CCc1ccccc1NC(=O)c1ccc(F)c(S(=O)(=O)NC2CCCCCC2)c1 | D(1A) dopamine receptor (Homo sapiens) | -16.4 |
| COc1ccccc1N1CCN(C(=O)C2CCN(S(=O)(=O)c3c(C)noc3/C=C/c3ccc(C)cc3)CC2)CC1 | D(1A) dopamine receptor (Homo sapiens) | 1.37 |
| O=S(=O)(NC1CC1)c1ccc2c3c(cccc13)CC2 | D(1A) dopamine receptor (Homo sapiens) | -23.6 |
| CCC(=O)N1CCc2cc(CNC(=O)Nc3ccccc3Cl)ccc21 | D(1A) dopamine receptor (Homo sapiens) | 8.55 |
| Cc1ccccc1C(=O)N(Cc1ccc(N(C)C)cc1)CC1CCCO1 (configuration not stated) | D(1A) dopamine receptor (Homo sapiens) | 12.9 |
| CNC(=O)CN1C(=O)c2cccnc2Sc2ccccc21 | D(1A) dopamine receptor (Homo sapiens) | 2.47 |
| COc1cccc(CNC(=O)CN2C(=O)CCc3cc(S(=O)(=O)N4CCOCC4)ccc32)c1 | D(1A) dopamine receptor (Homo sapiens) | -4.09 |
| Cc1cccc(N2CCN(C(=O)c3cnc(N4CCCC4)nc3C)CC2)c1C | D(1A) dopamine receptor (Homo sapiens) | 10 |
| CC(=O)c1cccc(NC(=S)N2CCCC2)c1 | D(1A) dopamine receptor (Homo sapiens) | -8.06 |

Attribution: PubChem BioAssay AID504652
